tested target: E. coli glycerol dehydrogenase (GlyDH, GldA), native (wild type) (Escherichia coli)
Sequence (P0A9S5 whole entry): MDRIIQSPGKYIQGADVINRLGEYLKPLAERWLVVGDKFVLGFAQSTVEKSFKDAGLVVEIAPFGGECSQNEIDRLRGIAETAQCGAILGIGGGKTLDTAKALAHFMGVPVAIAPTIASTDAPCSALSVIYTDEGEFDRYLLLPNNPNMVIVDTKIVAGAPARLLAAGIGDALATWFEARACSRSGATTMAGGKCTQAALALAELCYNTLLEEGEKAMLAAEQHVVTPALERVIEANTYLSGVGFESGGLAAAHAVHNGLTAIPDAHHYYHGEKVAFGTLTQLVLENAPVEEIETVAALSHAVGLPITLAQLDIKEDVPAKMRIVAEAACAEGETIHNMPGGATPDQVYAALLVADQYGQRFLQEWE
property: pKi
Numbers only, as −log10 of the molar value.

Query string: Which measured pKi value corresponds to NC(=O)c1ccc[n+]([C@@H]2O[C@H](COP(=O)([O-])OP(=O)(O)OC[C@H]3O[C@@H](n4cnc5c(N)ncnc54)[C@H](O)[C@@H]3O)[C@@H](O)[C@H]2O)c1 [NAD+] ?
Result string: 3.37
